# key: entry, value: Ki
# MEASURED_ON: serotonin 5-HT1A receptor (Rattus norvegicus)
# Construct: Rat cerebral cortex was homogenized in 20 volumes of ice-cold Tris-HCl buffer; from tissue; host or cells: rat brain (cerebral) cortex
# Sequence (P19327 whole entry): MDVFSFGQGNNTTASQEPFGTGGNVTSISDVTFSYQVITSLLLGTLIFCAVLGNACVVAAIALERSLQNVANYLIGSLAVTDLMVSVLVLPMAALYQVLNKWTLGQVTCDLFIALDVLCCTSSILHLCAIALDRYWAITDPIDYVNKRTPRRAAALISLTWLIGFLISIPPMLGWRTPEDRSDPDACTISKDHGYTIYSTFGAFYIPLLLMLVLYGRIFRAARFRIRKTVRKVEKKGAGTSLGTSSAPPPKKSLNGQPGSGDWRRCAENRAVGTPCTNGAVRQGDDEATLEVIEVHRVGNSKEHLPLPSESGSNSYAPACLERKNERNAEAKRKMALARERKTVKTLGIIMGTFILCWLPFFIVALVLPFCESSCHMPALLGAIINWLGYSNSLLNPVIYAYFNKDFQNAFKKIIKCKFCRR
# ASSAY_PROTOCOL: 5-HT1A binding assay ([3H]8-OH-DPAT, rat brain cortex)
# CONDITION_CONTEXT: [3H]8-OH-DPAT, rat brain cortex; mean of three experiments; >10000 marked b: Ki not calculated, inhibition at 10 µM too low; read-out: Ki±SEM, 5HT1A
RECORDED_METRIC: Ki (nM)

* Fc1ccc2c(C3CCN(CCCSc4nnc(-c5ccc(Cl)cc5)o4)CC3)noc2c1 | 10.5
* c1ccc2c(-c3nnc(SCCCN4CCN(c5nsc6ccccc56)CC4)o3)cccc2c1 | 346
* Fc1ccc2c(C3CCN(CCCSc4nnc(-c5ccncc5)o4)CC3)noc2c1 | 60.6

---

# key: entry, value: Ki
# MEASURED_ON: dopamine D2 receptor (Rattus norvegicus, UniProt P61169)
# Construct: Rat striatum was homogenized in 20 volumes of ice-cold 50 mM Tris-HCl buffer; from tissue; host or cells: rat striatum
# Sequence (P61169 whole entry): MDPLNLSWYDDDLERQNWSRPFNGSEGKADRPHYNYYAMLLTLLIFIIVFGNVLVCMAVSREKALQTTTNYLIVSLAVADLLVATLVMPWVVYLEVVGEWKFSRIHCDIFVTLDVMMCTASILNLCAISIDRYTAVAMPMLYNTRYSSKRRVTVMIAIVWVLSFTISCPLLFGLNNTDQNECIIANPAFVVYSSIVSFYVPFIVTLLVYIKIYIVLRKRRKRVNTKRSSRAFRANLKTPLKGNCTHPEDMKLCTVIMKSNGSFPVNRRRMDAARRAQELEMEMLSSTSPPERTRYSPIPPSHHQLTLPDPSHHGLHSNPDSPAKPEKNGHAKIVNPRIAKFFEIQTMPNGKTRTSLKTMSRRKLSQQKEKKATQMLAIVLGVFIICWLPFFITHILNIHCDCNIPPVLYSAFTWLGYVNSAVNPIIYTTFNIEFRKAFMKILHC
# ASSAY_PROTOCOL: D2 dopaminergic binding assay ([3H]spiperone, rat striatum)
# CONDITION_CONTEXT: read-out: Ki±SEM, D2
RECORDED_METRIC: Ki

* Fc1ccc2c(C3CCN(CCCSc4nnc(-c5ccc(C(F)(F)F)cc5)o4)CC3)noc2c1 | 94.5 nM
* c1ccc(-c2nnc(SCCCN3CCN(c4nsc5ccccc45)CC3)o2)cc1 | 2570 nM
* COc1ccccc1N1CCN(CCCSc2nnc(-c3ccccc3)o2)CC1 | > 10000 nM
* Cc1cccc(N2CCN(CCCSc3nnc(-c4ccccc4)o3)CC2)c1C | > 10000 nM
* c1ccc2c(N3CCN(CCCSc4nnc(-c5ccncc5)o4)CC3)nsc2c1 | > 10000 nM
* Clc1cccc(N2CCN(CCCSc3nnc(-c4ccccc4)o3)CC2)c1Cl | > 10000 nM
* Fc1ccc2c(C3CCN(CCCSc4nnc(-c5ccccc5)o4)CC3)noc2c1 | 2970 nM
* FC(F)(F)c1cccc(N2CCN(CCCSc3nnc(-c4ccccc4)o3)CC2)c1 | > 10000 nM
* COc1ccc(-c2nnc(SCCCN3CCC(c4noc5cc(F)ccc45)CC3)o2)cc1 | 14.8 nM

---

# MEASURED_ON: histamine H1 receptor (Cavia porcellus)
# Construct: Guinea pig cerebellum was homogenized in 20 volumes of ice-cold 50 mM phosphate buffer; from tissue; host or cells: guinea pig cerebellum
# Sequence (P31389 whole entry): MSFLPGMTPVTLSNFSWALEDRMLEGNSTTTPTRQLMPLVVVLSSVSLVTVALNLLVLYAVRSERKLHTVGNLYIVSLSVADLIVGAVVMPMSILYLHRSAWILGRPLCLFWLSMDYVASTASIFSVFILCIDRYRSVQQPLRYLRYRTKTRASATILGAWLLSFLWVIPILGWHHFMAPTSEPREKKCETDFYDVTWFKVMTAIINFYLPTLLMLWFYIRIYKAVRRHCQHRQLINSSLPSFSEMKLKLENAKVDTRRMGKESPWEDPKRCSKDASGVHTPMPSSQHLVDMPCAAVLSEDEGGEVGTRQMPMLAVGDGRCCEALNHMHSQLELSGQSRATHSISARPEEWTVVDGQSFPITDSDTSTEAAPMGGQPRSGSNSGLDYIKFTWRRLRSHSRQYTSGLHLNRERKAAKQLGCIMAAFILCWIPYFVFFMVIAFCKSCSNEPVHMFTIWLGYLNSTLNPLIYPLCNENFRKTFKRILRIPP
# ASSAY_PROTOCOL: Histamine H1 binding assay ([3H]pyrilamine, guinea pig cerebellum)
# CONDITION_CONTEXT: [3H]pyrilamine, guinea pig cerebellum; mean of three experiments; >10000 marked b: Ki not calculated, inhibition at 10 µM too low; read-out: Ki±SEM, H1
pKi: −log10 of the molar value.
RECORDED_METRIC: pKi

- Fc1ccc2c(C3CCN(CCCSc4nnc(-c5ccc(Cl)cc5)o4)CC3)noc2c1 [Compound 16]: 7.72

---

# key: entry, value: pKi
# MEASURED_ON: serotonin 5-HT2A receptor (Rattus norvegicus)
# Construct: Rat cerebral cortex was homogenized in 20 volumes of ice-cold Tris-HCl buffer; from tissue; host or cells: rat brain (cerebral) cortex
# Sequence (P14842 whole entry): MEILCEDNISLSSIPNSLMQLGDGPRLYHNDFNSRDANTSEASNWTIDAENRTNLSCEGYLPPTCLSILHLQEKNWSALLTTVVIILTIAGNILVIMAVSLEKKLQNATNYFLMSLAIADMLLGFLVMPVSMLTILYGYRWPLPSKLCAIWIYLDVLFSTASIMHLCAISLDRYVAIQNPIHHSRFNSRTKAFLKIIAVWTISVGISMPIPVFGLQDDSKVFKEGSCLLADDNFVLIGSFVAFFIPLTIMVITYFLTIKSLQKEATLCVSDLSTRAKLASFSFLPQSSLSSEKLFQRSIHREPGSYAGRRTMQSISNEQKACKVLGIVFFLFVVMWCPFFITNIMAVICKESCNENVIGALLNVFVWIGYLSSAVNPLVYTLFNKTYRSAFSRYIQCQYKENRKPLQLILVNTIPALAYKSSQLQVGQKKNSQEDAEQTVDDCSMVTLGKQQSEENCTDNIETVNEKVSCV
# ASSAY_PROTOCOL: 5-HT2A binding assay ([3H]ketanserin, rat brain cortex)
# CONDITION_CONTEXT: [3H]ketanserin, rat brain cortex; mean of three experiments; >10000 marked b: Ki not calculated, inhibition at 10 µM too low; read-out: Ki±SEM, 5HT2A
pKi: −log10 of the molar value.
RECORDED_METRIC: pKi

* Fc1ccc2c(C3CCN(CCCSc4nnc(-c5ccncc5)o4)CC3)noc2c1 [Compound 26] | 7.23
* c1csc(-c2nnc(SCCCN3CCN(c4nsc5ccccc45)CC3)o2)c1 [Compound 23] | 7.27
* Clc1ccc(-c2nnc(SCCCN3CCN(c4nsc5ccccc45)CC3)o2)cc1 [Compound 15] | 7.57
* c1ccc2c(-c3nnc(SCCCN4CCN(c5nsc6ccccc56)CC4)o3)cccc2c1 [Compound 21] | 6.94
